The measured values listed here are drawn from patent US20240209076A1.

- targetOrTestSystem: T1, human IL-6 (human, UniProt P05231 30-212)
- T1 construct: IL-6 flowed over captured antibodies
- T1 sequence (P05231 30-212 limits assumed): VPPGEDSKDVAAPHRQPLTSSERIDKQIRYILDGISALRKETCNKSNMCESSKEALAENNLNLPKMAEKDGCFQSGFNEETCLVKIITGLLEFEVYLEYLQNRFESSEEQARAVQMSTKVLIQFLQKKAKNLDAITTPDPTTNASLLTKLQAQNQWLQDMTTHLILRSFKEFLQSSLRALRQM
- assayOverview: SPR Biacore, purified Ab on Protein A chip, 37 C
testReadout: pKd
Give only the number. pKd is defined as minus log10 of concentration in molar units.

Use the examples below as a reference point.
| binder | testReadout | testResult |
| --- | --- | --- |
| anti-IL-6 antibody, heavy chain WT / light chain M32L, M50D, N52S, M88Q (antibody, IgG1, V domains shown, Full IgG1 (Expi293); VL = variant III) VH: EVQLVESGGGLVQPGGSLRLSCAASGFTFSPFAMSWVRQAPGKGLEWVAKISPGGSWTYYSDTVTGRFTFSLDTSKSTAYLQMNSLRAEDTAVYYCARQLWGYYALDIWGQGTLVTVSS VL: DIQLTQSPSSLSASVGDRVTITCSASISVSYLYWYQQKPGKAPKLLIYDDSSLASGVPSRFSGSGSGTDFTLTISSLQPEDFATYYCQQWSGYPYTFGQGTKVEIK | pKd | 9.54 |
| anti-IL-6 antibody, heavy chain G66D / light chain M32L, M50D, N52S, M88Q (antibody, IgG1, V domains shown, Full IgG1 (Expi293); VL = variant III) VH: EVQLVESGGGLVQPGGSLRLSCAASGFTFSPFAMSWVRQAPGKGLEWVAKISPGGSWTYYSDTVTDRFTFSLDTSKSTAYLQMNSLRAEDTAVYYCARQLWGYYALDIWGQGTLVTVSS VL: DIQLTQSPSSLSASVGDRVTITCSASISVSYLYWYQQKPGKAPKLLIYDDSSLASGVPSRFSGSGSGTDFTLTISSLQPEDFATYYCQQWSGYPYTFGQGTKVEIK | pKd | 9.61 |
| anti-IL-6 antibody, heavy chain T63Q, G66D / light chain M32L, M50D, N52S, M88Q (antibody, IgG1, V domains shown, Full IgG1 (Expi293); VL = variant III) VH: EVQLVESGGGLVQPGGSLRLSCAASGFTFSPFAMSWVRQAPGKGLEWVAKISPGGSWTYYSDQVTDRFTFSLDTSKSTAYLQMNSLRAEDTAVYYCARQLWGYYALDIWGQGTLVTVSS VL: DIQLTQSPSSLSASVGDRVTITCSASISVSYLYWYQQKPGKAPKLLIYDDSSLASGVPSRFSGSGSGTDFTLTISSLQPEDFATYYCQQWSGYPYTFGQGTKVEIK | pKd | 9.70 |

Q. Return reported pKd; argument: anti-IL-6 antibody, heavy chain T63K, G66D / light chain M32L, M50D, N52S, M88Q (antibody, IgG1, V domains shown, Full IgG1 (Expi293); VL = variant III) VH: EVQLVESGGGLVQPGGSLRLSCAASGFTFSPFAMSWVRQAPGKGLEWVAKISPGGSWTYYSDKVTDRFTFSLDTSKSTAYLQMNSLRAEDTAVYYCARQLWGYYALDIWGQGTLVTVSS VL: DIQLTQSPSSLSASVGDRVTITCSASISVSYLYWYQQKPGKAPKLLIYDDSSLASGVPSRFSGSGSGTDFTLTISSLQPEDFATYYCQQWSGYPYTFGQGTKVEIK
A. 9.60

Q. // next record anti-IL-6 antibody, heavy chain T63E, G66D / light chain M32L, M50D, N52S, M88Q (antibody, IgG1, V domains shown, Full IgG1 (Expi293); VL = variant III) VH: EVQLVESGGGLVQPGGSLRLSCAASGFTFSPFAMSWVRQAPGKGLEWVAKISPGGSWTYYSDEVTDRFTFSLDTSKSTAYLQMNSLRAEDTAVYYCARQLWGYYALDIWGQGTLVTVSS VL: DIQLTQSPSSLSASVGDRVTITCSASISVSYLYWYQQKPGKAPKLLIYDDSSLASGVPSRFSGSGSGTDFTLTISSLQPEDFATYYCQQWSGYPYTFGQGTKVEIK
A. 9.70

Q. // next record anti-IL-6 antibody, heavy chain T65Q, G66D / light chain M32L, M50D, N52S, M88Q (antibody, IgG1, V domains shown, Full IgG1 (Expi293); VL = variant III) VH: EVQLVESGGGLVQPGGSLRLSCAASGFTFSPFAMSWVRQAPGKGLEWVAKISPGGSWTYYSDTVQDRFTFSLDTSKSTAYLQMNSLRAEDTAVYYCARQLWGYYALDIWGQGTLVTVSS VL: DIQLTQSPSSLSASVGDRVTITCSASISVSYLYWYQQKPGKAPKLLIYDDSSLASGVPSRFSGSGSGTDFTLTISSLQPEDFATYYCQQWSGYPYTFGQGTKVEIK
A. 9.68

Q. // next record anti-IL-6 antibody, heavy chain S35H, G66D / light chain M32L, M50D, N52S, M88Q (antibody, IgG1, V domains shown, Full IgG1 (Expi293); VL = variant III) VH: EVQLVESGGGLVQPGGSLRLSCAASGFTFSPFAMHWVRQAPGKGLEWVAKISPGGSWTYYSDTVTDRFTFSLDTSKSTAYLQMNSLRAEDTAVYYCARQLWGYYALDIWGQGTLVTVSS VL: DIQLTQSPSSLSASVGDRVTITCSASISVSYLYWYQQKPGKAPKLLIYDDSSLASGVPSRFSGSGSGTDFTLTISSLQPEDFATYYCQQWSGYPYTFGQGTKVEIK
A. 9.67
